Tested on: pERK in PSN1 cells
Experiment: Inhibition of KRas phosphorylation of ERK (Cisbio HTRF pERK assay)
Conditions: Homo sapiens, PSN1, 3 h, read-out: Inhibition (HTRF IC50) of KRas-mediated Phosphorylation of ERK, PSN1
The entries below are paired with their reported IC50.

Compound	Target or test system	IC50
CC1(O)COCCN(c2nc(OC[C@@]34CCCN3C[C@H](F)C4)nc3c(F)c(-c4cc(O)cc5ccc(F)c(Br)c45)ncc23)C1 (stereo partly drawn) [Example 400]	pERK in PSN1 cells	3.54 µM
CCc1c(F)ccc2cc(O)cc(-c3ncc4c(NCc5ccc6nonc6c5)nc(OC[C@@]56CCCN5C[C@H](F)C6)nc4c3F)c12 [Example 175]	pERK in PSN1 cells	≥ 10 µM
CCc1c(F)ccc2cc(O)cc(-c3ncc4c(N5C[C@H](O)C[C@@H](F)C5)nc(OC[C@@]56CCCN5C[C@H](F)C6)nc4c3F)c12 [Example 178]	pERK in PSN1 cells	≥ 10 µM

Taken from patent US12398154B2.
